The origin of these recorded values is patent US20240132578A1.

ASSAYED SYSTEM: HIV-1 Env of isolate MGRM-G-024 (subtype G), on pseudovirus (HIV-1)
METHOD NOTES: cell-based or functional assay
MEASURED ATTRIBUTE: IC50 (µg/mL), neutralization of pseudovirus

{"BINDER": "PGT-125 (antibody, V domains shown) VH: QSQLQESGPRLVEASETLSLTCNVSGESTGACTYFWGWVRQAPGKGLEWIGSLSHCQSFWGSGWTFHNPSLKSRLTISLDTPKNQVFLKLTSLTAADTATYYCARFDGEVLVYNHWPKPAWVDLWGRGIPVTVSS VL: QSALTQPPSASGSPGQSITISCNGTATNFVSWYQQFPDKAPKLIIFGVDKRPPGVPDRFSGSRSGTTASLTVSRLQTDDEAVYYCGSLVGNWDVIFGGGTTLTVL", "QUALIFIER SYMBOL": ">", "MEASURED NUMBER": 50}
{"BINDER": "PGT-128 (antibody, V domains shown) VH: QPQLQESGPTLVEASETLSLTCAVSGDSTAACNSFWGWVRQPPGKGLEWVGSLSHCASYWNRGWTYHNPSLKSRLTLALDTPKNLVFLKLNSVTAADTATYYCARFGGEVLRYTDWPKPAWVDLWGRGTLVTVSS VL: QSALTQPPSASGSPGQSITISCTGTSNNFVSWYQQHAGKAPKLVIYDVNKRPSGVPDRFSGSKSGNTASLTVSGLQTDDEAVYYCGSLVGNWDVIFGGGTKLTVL", "QUALIFIER SYMBOL": "=", "MEASURED NUMBER": 0.095}
{"BINDER": "PGT-137 (antibody, V domains shown) VH: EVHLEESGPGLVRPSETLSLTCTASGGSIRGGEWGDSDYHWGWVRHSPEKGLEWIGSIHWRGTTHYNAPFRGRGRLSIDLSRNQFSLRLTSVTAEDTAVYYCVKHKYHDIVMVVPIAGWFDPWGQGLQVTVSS VL: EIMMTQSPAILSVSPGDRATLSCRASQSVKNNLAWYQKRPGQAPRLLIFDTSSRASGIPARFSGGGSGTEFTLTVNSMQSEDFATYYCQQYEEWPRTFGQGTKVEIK", "QUALIFIER SYMBOL": "=", "MEASURED NUMBER": 0.051}
